B1: HDV Ribozyme (parent)
chain: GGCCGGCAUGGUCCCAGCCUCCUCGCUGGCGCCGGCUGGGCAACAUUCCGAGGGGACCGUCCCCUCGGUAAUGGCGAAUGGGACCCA

variants of: B1; experiment: self-cleavage, relative activity (ratio to wild type); higher = more cleavage; co-transcriptional
Kindly return 1 if reported self-cleavage is no lower than 0.3; return -1 if it is lower.

Here's what some known entries look like.
• GGCCGGCAUGGUCCCAGCCUCCUCGCUGGCGCCGGCUGGGCAACAUUCCGAGCGGACGGUCCCCUCGGUAAUGGCGAAUGGGACCCA [G53C C58G] = 1
• GGCCGGCAUGGUCCCAGCCUCCUCGCUGGCGCCGGCUGGGCAACAUUCCGAGGCGACCGUCCCCUCGGUAACGGCGAAUGGGACCCA [G54C U72C] = 1
• GGCGGGCCUGGUCCCAGCCUCCUCGCUGGCGCCGGCUGGGCAACAUUCCGAGGGGACCGUCCCCUCGGUAAUGGCGAAUGGGACCCA [C4G A8C] = -1
• GGCCGGCAUGGUCCCAGCCUCCUUGCUGGCGCCGGCUGAGCAACAUUCCGAGGGGACCGUCCCCUCGGUAAUGGCGAAUGGGACCCA [C24U G39A] = -1
• GGCCGGCAUGGUCCCAGCCUCCUCGCUGGCGGCGGCUGGGCAACAUUCCGAGGGGACCGUCCCCUCGCUAAUGGCGAAUGGGACCCA [C32G G68C] = -1
• GGCCGGCAUGGUCCCAGCCUCCUUGCUGGCGCCGGCUGGGCAACAUUCCGAGGGGACCGUCCCCUCGGUUAUGGCGAAUGGGACCCA [C24U A70U] = 1

Consider now this further variant.
Request: Does GGCCGGCAUGGUCCCAGCCUCCUCGCUGGCGCCGGCUGGGCAACAUUCCGAGGCGACCGACCCCUCGGUAAUGGCGAAUGGGACCCA [G54C U60A] have a reported self-cleavage of at least 0.3?
Response: 1
